TESTED_ON: S. pneumoniae ComD1 receptor (Streptococcus pneumoniae serotype 2, UniProt A0A0H2ZM50)
EXPERIMENTAL_PROTOCOL: β-galactosidase reporter assay, agonism
Assay type: cell-based
Where no end group is shown, it is not given here.
In this section we review reported EC50 values for a set of sequences.
Respond numerically; units are nM and should not be typed.

Example cases with answers are listed next.
INPUT_SEQUENCE: EIRQTHNIFFFLFKRR [S. mitis-CSP-2-N11FF12L]
TESTED_ON: S. pneumoniae ComD1 receptor (Streptococcus pneumoniae serotype 2, UniProt A0A0H2ZM50)
EC50 [nM]: 4.97
//
INPUT_SEQUENCE: EIRLTHNIFFFFFKRR [S. mitis-CSP-2-Q4LN11F]
TESTED_ON: S. pneumoniae ComD1 receptor (Streptococcus pneumoniae serotype 2, UniProt A0A0H2ZM50)
EC50 [nM]: 9.38
//
INPUT_SEQUENCE: EMRQTHNIFFNFFKRR [S. mitis-CSP-2-I2M]
TESTED_ON: S. pneumoniae ComD1 receptor (Streptococcus pneumoniae serotype 2, UniProt A0A0H2ZM50)
EC50 [nM]: 87.7

From here, focus on the item given below.
Q. Could you share which EC50 value was measured for EMRQTHNIFFFFFKRR [S. mitis-CSP-2-I2MN11F] ?
A. 17.7

---

TESTED_ON: S. pneumoniae ComD1 receptor (Streptococcus pneumoniae serotype 2)
Sequence (A0A0H2ZM50 1-441): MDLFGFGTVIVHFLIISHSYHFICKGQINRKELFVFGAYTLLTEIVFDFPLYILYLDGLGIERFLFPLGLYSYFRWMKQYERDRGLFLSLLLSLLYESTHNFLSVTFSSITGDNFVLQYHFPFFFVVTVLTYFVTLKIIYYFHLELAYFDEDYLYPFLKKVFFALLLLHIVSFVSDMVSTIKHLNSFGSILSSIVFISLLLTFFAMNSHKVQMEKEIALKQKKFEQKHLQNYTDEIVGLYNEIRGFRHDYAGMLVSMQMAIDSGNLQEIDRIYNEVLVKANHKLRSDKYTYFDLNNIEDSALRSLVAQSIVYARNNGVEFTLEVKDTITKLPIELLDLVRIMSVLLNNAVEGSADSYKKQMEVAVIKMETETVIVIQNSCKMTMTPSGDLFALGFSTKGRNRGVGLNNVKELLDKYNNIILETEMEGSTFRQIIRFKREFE
EXPERIMENTAL_PROTOCOL: β-galactosidase reporter assay, agonism
Assay type: cell-based
Where no end group is shown, it is not given here.
In this section we review reported EC50 values for a set of sequences.
Respond numerically; units are nM and should not be typed.

Example cases with answers are listed next.
INPUT_SEQUENCE: EIRQTHIIFFNFFKRR [S. mitis-CSP-2-N7I]
TESTED_ON: S. pneumoniae ComD1 receptor (Streptococcus pneumoniae serotype 2)
OBSERVED_MEASUREMENT: 101
--
INPUT_SEQUENCE: EMRLTHIIFFNFFKRR [S. mitis-CSP-2-I2MQ4LN7I]
TESTED_ON: S. pneumoniae ComD1 receptor (Streptococcus pneumoniae serotype 2)
OBSERVED_MEASUREMENT: 155
--
INPUT_SEQUENCE: EIRLTHNIFFNFFKRR [S. mitis-CSP-2-Q4L]
TESTED_ON: S. pneumoniae ComD1 receptor (Streptococcus pneumoniae serotype 2)
OBSERVED_MEASUREMENT: 88.2

From here, focus on the item given below.
Q. Checklist item: EC50 tested on S. pneumoniae ComD1 receptor (Streptococcus pneumoniae serotype 2), entry EIRQTHFFFFNLFKRR [S. mitis-CSP-2-N7FI8FF12L] , value?
A. 101
